experiment: Toxicity in Balb/c nude mouse dosed intravenously every 3 days for consecutive 21 days; format: organism-based; conditions: in vivo, iv
Readout label: LD50 at 21 days (mg/kg)
The answer is to be given in mg/kg; state only the numeric part.

Please report the recorded LD50 at 21 days for "[2H]/C(c1nc[nH]c1C(C)(C)C)=c1/[nH]c(=O)/c(=C/c2ccccc2)[nH]c1=O" .
18.9
